Catalogue of self-splicing fitness (ln) values
# RUN DESCRIPTION: self-splicing fitness, log relative to wild type (ln ratio); higher = more splicing; Tetrahymena group I intron in knt gene, E. coli kanamycin selection, DiMSum; sequences stand for … in CUCUCU…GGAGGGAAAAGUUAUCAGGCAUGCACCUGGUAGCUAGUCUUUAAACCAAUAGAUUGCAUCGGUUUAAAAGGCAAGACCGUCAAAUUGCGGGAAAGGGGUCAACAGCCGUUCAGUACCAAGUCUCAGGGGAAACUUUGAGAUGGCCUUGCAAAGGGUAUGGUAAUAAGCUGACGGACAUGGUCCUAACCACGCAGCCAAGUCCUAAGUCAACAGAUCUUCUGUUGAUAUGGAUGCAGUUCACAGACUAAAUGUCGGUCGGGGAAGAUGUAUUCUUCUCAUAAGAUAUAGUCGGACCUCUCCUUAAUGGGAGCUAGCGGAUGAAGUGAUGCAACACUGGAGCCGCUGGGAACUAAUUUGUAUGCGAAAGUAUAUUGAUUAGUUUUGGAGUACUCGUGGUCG;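 also: selection with 25 µg/mL kanamycin versus none on LB agar overnight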
# ASSAY CONTEXT: 37 °C
MEASUREMENT KIND: self-splicing fitness (ln)

1) UUUAAGCAAUAUUACGUUCG -0.169
2) UUCAAGCAAUAUUACGAGCA -0.0614
3) GGGGAGCAAUAUUACGCUCU -2.19
4) UUGUAGCAAUAUUACGAUUG -1.42
5) GUACAGCAAUAUUACGGACU -0.781
6) GUUAAGCAAUAUUACGGCGU -0.00868
7) UGAUAGCAAUAUUACGCUAG -0.588
8) GAUAAGCAAUAUUACGGGGA -2.16
9) AGGAAGCAAUAUUACGCUAU -2.35
10) CAGCAGCAAUAUUACGGGGG -1.54
11) AAUGAGCAAUAUUACGUGAU -0.708
12) CGAAAGCAAUAUUACGACGC 0.0494
13) AACGAGCAAUAUUACGAGAG -1.98
14) GCUCAGCAAUAUUACGGCUA -0.758
15) CAUCAGCAAUAUUACGGAUG -2.94
16) GUAAAGCAAUAUUACGCAGG -0.168
17) AAGCAGCAAUAUUACGCGAC -1.95
18) CCAAAGCAAUAUUACGACUC -2.03
19) UUUCAGCAAUAUUACGCACU -0.09
20) AUAGAGCAAUAUUACGCUAG -0.475
21) GGUUAGCAAUAUUACGUGGG -2.54
22) GCUAAGCAAUAUUACGCACG -0.0584
23) CUGUAGCAAUAUUACGGUGC -2.77
24) CUCAAGCAAUAUUACGAUUU -2.4
25) CUUGAGCAAUAUUACGAUUG -1.32
26) UAAAAGCAAUAUUACGCAGU -1.3
27) AUUUAGCAAUAUUACGGAUU -0.519
28) ACAGAGCAAUAUUACGGGCU -2.58
29) AACGAGCAAUAUUACGAGCA -1.97
30) CCCCAGCAAUAUUACGUUCG -2.79
31) UACUAGCAAUAUUACGGAAC -3.03
32) AAGUAGCAAUAUUACGUAUA -2.15
33) CUUCAGCAAUAUUACGUUAA -3.51
34) GCAGAGCAAUAUUACGAAAU -2.79
